target: WIZ protein (HiBit-WIZ fusion protein) (Homo sapiens, UniProt O95785+Q96SW2); construct: expressed in transfected cells; test: Quantification of WIZ protein levels in HiBit tag fusion protein assay (WIZ HiBit assay in 293T cells); type: cell-based; conditions: HEK-293T, DMSO-normalized, curve-fitted percentage of WIZ-HiBit remaining at 25 uM; 293T cells; read-out: WIZ Amax
Sequence (O95785 whole entry, the tested form may be a part): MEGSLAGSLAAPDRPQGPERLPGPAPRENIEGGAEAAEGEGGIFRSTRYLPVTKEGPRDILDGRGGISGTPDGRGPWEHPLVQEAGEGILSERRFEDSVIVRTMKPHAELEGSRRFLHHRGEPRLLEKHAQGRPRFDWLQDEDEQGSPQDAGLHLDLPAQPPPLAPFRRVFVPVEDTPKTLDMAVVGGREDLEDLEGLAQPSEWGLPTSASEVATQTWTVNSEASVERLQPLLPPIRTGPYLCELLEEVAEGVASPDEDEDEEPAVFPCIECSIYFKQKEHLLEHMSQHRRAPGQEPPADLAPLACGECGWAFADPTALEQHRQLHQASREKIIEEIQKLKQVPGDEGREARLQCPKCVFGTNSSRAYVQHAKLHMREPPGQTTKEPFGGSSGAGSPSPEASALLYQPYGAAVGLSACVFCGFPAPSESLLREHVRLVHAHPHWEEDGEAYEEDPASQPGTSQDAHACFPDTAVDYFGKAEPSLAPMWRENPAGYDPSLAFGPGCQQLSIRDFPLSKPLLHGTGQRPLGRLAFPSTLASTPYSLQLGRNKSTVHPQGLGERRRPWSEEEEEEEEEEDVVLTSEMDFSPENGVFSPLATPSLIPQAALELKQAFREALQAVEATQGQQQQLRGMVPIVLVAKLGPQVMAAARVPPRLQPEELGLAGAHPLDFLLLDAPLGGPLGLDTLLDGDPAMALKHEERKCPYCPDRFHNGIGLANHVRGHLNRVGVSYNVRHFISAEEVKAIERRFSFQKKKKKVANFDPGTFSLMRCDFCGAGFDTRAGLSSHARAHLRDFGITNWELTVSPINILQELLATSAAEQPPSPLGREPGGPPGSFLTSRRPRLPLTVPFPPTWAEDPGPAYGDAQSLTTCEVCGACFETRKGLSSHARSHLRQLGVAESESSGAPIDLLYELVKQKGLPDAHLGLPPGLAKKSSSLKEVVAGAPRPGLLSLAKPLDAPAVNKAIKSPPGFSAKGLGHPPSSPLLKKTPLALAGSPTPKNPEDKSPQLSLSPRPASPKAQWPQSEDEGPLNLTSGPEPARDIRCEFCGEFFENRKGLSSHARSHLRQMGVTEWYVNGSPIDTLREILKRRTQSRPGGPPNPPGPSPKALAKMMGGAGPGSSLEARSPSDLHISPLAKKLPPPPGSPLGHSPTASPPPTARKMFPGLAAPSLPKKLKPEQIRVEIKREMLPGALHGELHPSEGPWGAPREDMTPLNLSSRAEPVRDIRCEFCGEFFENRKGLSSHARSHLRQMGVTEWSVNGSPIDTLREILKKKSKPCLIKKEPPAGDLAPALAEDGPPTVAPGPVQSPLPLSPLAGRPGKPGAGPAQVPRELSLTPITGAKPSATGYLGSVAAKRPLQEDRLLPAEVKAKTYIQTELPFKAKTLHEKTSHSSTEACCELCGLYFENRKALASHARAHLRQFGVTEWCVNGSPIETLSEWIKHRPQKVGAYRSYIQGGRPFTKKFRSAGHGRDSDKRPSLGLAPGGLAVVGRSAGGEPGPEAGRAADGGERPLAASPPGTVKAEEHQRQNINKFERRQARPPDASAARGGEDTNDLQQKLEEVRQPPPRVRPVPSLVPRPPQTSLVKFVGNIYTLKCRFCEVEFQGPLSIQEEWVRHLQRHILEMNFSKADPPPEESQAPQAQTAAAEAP
Sequence (Q96SW2 whole entry, the tested form may be a part): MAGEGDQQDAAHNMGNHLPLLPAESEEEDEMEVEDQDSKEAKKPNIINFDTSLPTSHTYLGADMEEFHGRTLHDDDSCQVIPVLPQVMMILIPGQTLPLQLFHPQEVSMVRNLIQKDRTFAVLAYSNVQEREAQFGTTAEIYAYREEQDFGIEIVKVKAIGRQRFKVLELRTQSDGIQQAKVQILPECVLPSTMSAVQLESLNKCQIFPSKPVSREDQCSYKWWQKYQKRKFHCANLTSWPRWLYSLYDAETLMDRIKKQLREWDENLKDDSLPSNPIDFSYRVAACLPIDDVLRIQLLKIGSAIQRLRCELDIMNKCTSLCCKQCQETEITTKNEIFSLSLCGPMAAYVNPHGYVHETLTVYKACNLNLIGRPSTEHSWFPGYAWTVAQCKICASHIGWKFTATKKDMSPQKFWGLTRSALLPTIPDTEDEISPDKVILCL
Sequence (Q16531 whole entry partner, the tested form may be a part): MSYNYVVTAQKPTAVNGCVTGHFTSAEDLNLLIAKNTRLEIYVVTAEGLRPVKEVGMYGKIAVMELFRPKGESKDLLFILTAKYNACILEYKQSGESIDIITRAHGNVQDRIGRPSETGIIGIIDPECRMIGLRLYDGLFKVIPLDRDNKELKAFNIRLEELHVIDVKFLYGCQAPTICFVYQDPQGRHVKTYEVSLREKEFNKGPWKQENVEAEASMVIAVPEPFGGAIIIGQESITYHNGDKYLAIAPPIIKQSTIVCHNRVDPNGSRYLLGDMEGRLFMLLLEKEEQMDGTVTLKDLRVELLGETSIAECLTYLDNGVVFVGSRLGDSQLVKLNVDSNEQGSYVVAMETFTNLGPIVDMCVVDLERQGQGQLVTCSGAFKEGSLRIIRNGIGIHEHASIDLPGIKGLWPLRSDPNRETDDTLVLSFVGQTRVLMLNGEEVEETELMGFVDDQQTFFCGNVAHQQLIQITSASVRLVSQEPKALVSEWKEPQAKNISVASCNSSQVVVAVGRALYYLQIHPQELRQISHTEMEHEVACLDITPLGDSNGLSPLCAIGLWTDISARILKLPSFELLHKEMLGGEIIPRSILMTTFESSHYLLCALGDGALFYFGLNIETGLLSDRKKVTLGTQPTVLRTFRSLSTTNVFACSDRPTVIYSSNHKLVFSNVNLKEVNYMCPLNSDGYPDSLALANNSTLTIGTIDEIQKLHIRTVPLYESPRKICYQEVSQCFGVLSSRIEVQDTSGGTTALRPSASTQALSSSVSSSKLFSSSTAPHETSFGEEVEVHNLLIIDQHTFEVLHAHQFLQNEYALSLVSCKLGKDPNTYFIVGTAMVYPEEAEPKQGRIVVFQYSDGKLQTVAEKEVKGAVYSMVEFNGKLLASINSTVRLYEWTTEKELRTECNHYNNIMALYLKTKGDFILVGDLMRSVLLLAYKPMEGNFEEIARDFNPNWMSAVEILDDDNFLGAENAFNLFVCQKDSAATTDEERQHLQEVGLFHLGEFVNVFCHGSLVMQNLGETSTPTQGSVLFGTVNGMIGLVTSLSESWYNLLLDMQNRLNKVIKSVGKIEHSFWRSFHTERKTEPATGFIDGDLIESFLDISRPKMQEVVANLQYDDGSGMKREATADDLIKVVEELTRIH
measure: remaining activity at 25 µM (%)
One number for each entry, in %.

Solved cases (7 shown):
compound: CC(C)(F)CN1CCN(Cc2ccn3ncc(N4CCC(=O)NC4=O)c3c2)CC1 [Example 169]
remaining activity at 25 µM [%]: 45
//
compound: O=C1CCN(c2cnn3ccc(CC4CCN(CC5CCCC5)CC4)cc23)C(=O)N1 [Example 2]
remaining activity at 25 µM [%]: 9
//
compound: CC(c1cccnc1)N1CCN(Cc2ccn3ncc(N4CCC(=O)NC4=O)c3c2)CC1 (centres unmarked) [Example 175]
remaining activity at 25 µM [%]: 60
//
compound: O=C1CCN(c2cnn3ccc(CN4CCN(CCC5CCCCC5)C(=O)C4)cc23)C(=O)N1 [Example 243]
remaining activity at 25 µM [%]: 87
//
compound: COCCS(=O)(=O)N1CCC(Cc2ccn3ncc(N4CCC(=O)NC4=O)c3c2)CC1 [Example 92]
remaining activity at 25 µM [%]: 31
//
compound: CC[C@H]1CN(Cc2ccn3ncc(N4CCC(=O)NC4=O)c3c2)CCN1CC(C)C [Example 228]
remaining activity at 25 µM [%]: 45
//
compound: O=C1CCN(c2cnn3ccc(CC4CCN(Cc5ccncc5)CC4)cc23)C(=O)N1 [Example 28]
remaining activity at 25 µM [%]: 25

The record that follows has no remaining activity at 25 µM shown yet.
For record CC(C)CN1CCN(C(C)c2ccn3ncc(N4CCC(=O)NC4=O)c3c2)CC1 (centres unmarked) [Example 345] the listed remaining activity at 25 µM is 27

====

molecular target: WIZ protein (HiBit-WIZ fusion protein) (Homo sapiens, UniProt O95785+Q96SW2); construct: expressed in transfected cells; test: Quantification of WIZ protein levels in HiBit tag fusion protein assay (WIZ HiBit assay in 293T cells); type: cell-based; parameters: dose or concentration left out as unconfirmed; conditions: HEK-293T, read-out: % degradation of WIZ (100 − Amax)
For each record, write down the corresponding Dmax.
Numbers only, in %.

Batch lookup, Dmax per entry.
1. CC(=O)N1CCC(Cc2ccn3ncc(N4CCC(=O)NC4=O)c3c2)CC1 [Example 104]
2. CCN(C)C(=O)N1CC[C@@H](Cc2ccn3ncc(N4CCC(=O)NC4=O)c3c2)C[C@@H]1C [Example 299]
3. COCC(F)(F)CN1CC[C@@H](Cc2ccn3ncc(N4CCC(=O)NC4=O)c3c2)C[C@@H]1C [Example 278]

RESULT:
1. 62
2. 82
3. 72

Give Dmax for each listed item.
1. CC(C)(C1CCC(F)(F)CC1)N1CCN(Cc2ccn3ncc(N4CCC(=O)NC4=O)c3c2)CC1 [Example 181]
2. COC(C)(C)CN1CCC(Cc2ccn3ncc(N4CCC(=O)NC4=O)c3c2)CC1 [Example 105]

RESULT:
[75, 64]

Report Dmax for every entry below.
1. O=C1CCN(c2cnn3ccc(CN4CCN(CC5CCCCC5)CC4)cc23)C(=O)N1 [Example 156]
2. CCS(=O)(=O)N1CC[C@@H](Cc2ccn3ncc(N4CCC(=O)NC4=O)c3c2)C[C@@H]1C [Example 283]

RESULT:
[86, 80]

Hi there! I need Dmax for each item below, if you can.
1. COc1ccnc(N2CCC(Cc3ccn4ncc(N5CCC(=O)NC5=O)c4c3)CC2)n1 [Example 69]
2. CC(C)C(=O)N1CCC(Cc2ccn3ncc(N4CCC(=O)NC4=O)c3c2)CC1 [Example 98]
3. C[C@H]1C[C@H](Cc2ccn3ncc(N4CCC(=O)NC4=O)c3c2)CCN1C(=O)C1CC1 [Example 287]
4. C[C@H]1CN(Cc2ccn3ncc(N4CCC(=O)NC4=O)c3c2)CCN1C1CCC1 [Example 329]
5. C[C@H]1C[C@H](Cc2ccn3ncc(N4CCC(=O)NC4=O)c3c2)CCN1CC(F)(F)C(F)F [Example 273]
6. O=C1CCN(c2cnn3ccc(CC4CCN(S(=O)(=O)CC5CCCCC5)CC4)cc23)C(=O)N1 [Example 80]

RESULT:
1: 35; 2: 59; 3: 81; 4: 83; 5: 78; 6: 88

====

Molecular target: WIZ protein (HiBit-WIZ fusion protein) (Homo sapiens, UniProt O95785+Q96SW2)
Construct: expressed in transfected cells
Experiment: Quantification of WIZ protein levels in HiBit tag fusion protein assay (WIZ HiBit assay in 293T cells)
Type: cell-based
Conditions: HEK-293T, 100 − Amax, at 25 uM; 293T cells; read-out: % degradation of WIZ (100 − Amax)
Experimental: The HiBit system from Promega was used to develop high-throughput and quantitative assays to measure changes in WIZ protein levels in response to compounds. […] The complementary fragment of Nanoluciferase (known as LgBit, from Promega), was added to the HiBit tag to form an active Nanoluciferase enzyme whose activity can be precisely measured. In this way, the levels of a fusion protein with the HiBit tag can be quantified in cell lysates. […]
Please go through the items and note down their Dmax at 25 µM.
One number for each entry, in %.

molecule: C[C@H]1CN(Cc2ccn3ncc(N4CCC(=O)NC4=O)c3c2)CCN1CC1CCCO1 (stereo partly drawn)
readout-units: %
Dmax at 25 µM: 74
//
molecule: O=C1CCN(c2cnn3ccc(CN4CCN5C(=O)COC[C@H]5C4)cc23)C(=O)N1
readout-units: %
Dmax at 25 µM: 34
//
molecule: O=C1CCN(c2cnn3ccc(CC4CCN(CC5CCC5)C4)cc23)C(=O)N1 (stereo not drawn)
readout-units: %
Dmax at 25 µM: 36
//
molecule: C[C@H]1C[C@H](Cc2ccn3ncc(N4CCC(=O)NC4=O)c3c2)CCN1CCC(F)(F)F
readout-units: %
Dmax at 25 µM: 84
//
molecule: C[C@H]1C[C@H](Cc2ccn3ncc(N4CCC(=O)NC4=O)c3c2)CCN1C1CCC1
readout-units: %
Dmax at 25 µM: 88

Parameters: items (list). Returns: Dmax at 25 µM for each item.
1. C[C@H]1CN(Cc2ccn3ncc(N4CCC(=O)NC4=O)c3c2)C[C@H](C)N1CC1CCCCC1
2. Cn1nccc1CN1CCC(Cc2ccn3ncc(N4CCC(=O)NC4=O)c3c2)CC1

RESULT:
1. 69
2. 68

For every item in the list below, what is its measured Dmax at 25 µM?
1. CC(C)CN1CC[C@@H](Cc2ccn3ncc(-n4cc(F)c(=O)[nH]c4=O)c3c2)C[C@@H]1C
2. C=C(C)CN1CCC(Cc2ccn3ncc(N4CCC(=O)NC4=O)c3c2)CC1 [Example 39a]
3. O=C1CCN(c2cnn3ccc(CC4CCNCC4)cc23)C(=O)N1
4. O=C1CCN(c2cnn3ccc(CC4CCN(CC(F)(F)C(F)F)CC4)cc23)C(=O)N1
5. O=C1CCN(c2cnn3ccc(CN4CCN(CC5CC(F)(F)C5)CC4)cc23)C(=O)N1

RESULT:
1: 86; 2: 68; 3: 34; 4: 74; 5: 81

====

biological target: WIZ protein (HiBit-WIZ fusion protein) (Homo sapiens, UniProt O95785+Q96SW2); construct: expressed in transfected cells; experiment: Quantification of WIZ protein levels in HiBit tag fusion protein assay (WIZ HiBit assay in 293T cells); format: cell-based; conditions: HEK-293T, 100 − Amax, at 25 uM; 293T cells; read-out: % degradation of WIZ (100 − Amax)
measure: Dmax at 25 µM

Field: example entries. Status: answers known.
compound: C[C@H]1C[C@H](Cc2ccn3ncc(-n4ccc(=O)[nH]c4=O)c3c2)CCN1C(=O)C1CC1 [Example 355]
Dmax at 25 µM: 82%
//
compound: O=C1CCN(c2cnn3ccc(CC4CCN(CC56CC7CC(CC(C7)C5)C6)CC4)cc23)C(=O)N1 [Example 117]
Dmax at 25 µM: 90%
//
compound: Cc1cccc(CN2CCN(Cc3ccn4ncc(N5CCC(=O)NC5=O)c4c3)CC2)c1 [Example 190]
Dmax at 25 µM: 54%
//
compound: COC[C@H]1CN(Cc2ccn3ncc(N4CCC(=O)NC4=O)c3c2)CCN1CC(C)C [Example 245]
Dmax at 25 µM: 52%
//
compound: O=C1CCN(c2cnn3ccc(CC4CCN(Cc5ccc(C(F)(F)F)cc5)CC4)cc23)C(=O)N1 [Example 57]
Dmax at 25 µM: 63%
//
compound: O=C1CCN(c2cnn3ccc(CN4CCCN(CC5CCCCC5)CC4)cc23)C(=O)N1 [Example 249]
Dmax at 25 µM: 41%
//
compound: CO[C@H]1CC[C@@H](CN2CCN(Cc3ccn4ncc(N5CCC(=O)NC5=O)c4c3)C[C@@H]2C)CC1 [Example 211]
Dmax at 25 µM: 86%
//
compound: O=C1CCN(c2cnn3ccc(CC4C[C@H]5CC[C@@H](C4)N5Cc4cccnc4)cc23)C(=O)N1 (stereo partly shown) [Example 68]
Dmax at 25 µM: 57%

For every record below, what is its Dmax at 25 µM?
1. O=C1CCN(c2cnn3ccc(CC4CCN(S(=O)(=O)C5CCOCC5)CC4)cc23)C(=O)N1 [Example 83]
2. CO[C@H]1C[C@H](CN2CCN(Cc3ccn4ncc(N5CCC(=O)NC5=O)c4c3)C[C@@H]2C)C1 [Example 316]
3. C[C@H]1C[C@H](Cc2ccn3ncc(N4CCC(=O)NC4=O)c3c2)CCN1CC1CCCCC1 [Example 143]
4. O=C1CCN(c2cnn3ccc(CC4CCN(CCC5CCC5)CC4)cc23)C(=O)N1 [Example 13]
5. Cn1cnc(CN2CCN(Cc3ccn4ncc(N5CCC(=O)NC5=O)c4c3)CC2)c1 [Example 196]
6. C[C@H]1C[C@H](Cc2ccn3ncc(-n4ccc(=O)[nH]c4=O)c3c2)CCN1CC1CCC(F)(F)CC1 [Example 268]
7. O=C1CCN(c2cnn3ccc(CN4CCN5CCC[C@H]5C4)cc23)C(=O)N1 [Example 260]
8. O=C1CCN(c2cnn3ccc(CC4CCN(CC5COC5)CC4)cc23)C(=O)N1 [Example 119]

RESULT:
["89%", "83%", "88%", "84%", "41%", "89%", "68%", "82%"]

All values here come from patent US11787785B2.
